tested on: Methicillin-resistant Staphylococcus epidermidis NRS101; assay: MIC/MBC Gram-positive pathogens (Table 9); assay type: cell-based

SMILES_CODE: Cc1nc(-c2ccc(C(C)(C)C)cc2)sc1-c1ccnc(NC(=N)N(C)C)n1
LIMIT_SIGN: =
MBC [µg/mL]: 8
--
SMILES_CODE: Cc1nc(-c2ccc(C(C)(C)C)cc2)sc1-c1ccnc(NC(=N)N2CCOCC2)n1
LIMIT_SIGN: =
MBC [µg/mL]: 4
--
SMILES_CODE: Cc1nc(-c2ccc(C(C)(C)C)cc2)sc1-c1ccnc(NC(=N)c2ccccn2)n1
LIMIT_SIGN: >
MBC [µg/mL]: 64
--
SMILES_CODE: Cc1nc(-c2ccc(C(C)(C)C)cc2)sc1-c1ccnc(NC(=N)c2cccnc2)n1
LIMIT_SIGN: >
MBC [µg/mL]: 64
